Experiment: yeast display, Sf9 membrane polyspecificity reagent, FACS + sequencing; frameworks hold sequencing errors

monomer.sequence | polyreactivity (PSR sort gate)
QVQLVDSGGGLVQAGGSLRLSCAASGSTFISYAMRWYRPAPGKERELVAAISSSTGRTYYADSVKGRFTISRDNAKNTVYLQMNSLKPEDTAVYYCNAVHRYERVYWGQGTQVTVSS | high polyreactivity
QVQLVESGGGLVQAGGSLRLSCAASGSILDGYDMGRYRQAPGKERDLDAAISTNSDRTYYADSVKGRFTISRDNAKNTVYLQMNSLKPEDTAVYYCNARKRRRAGYPYDYWGQGTQVTVSS | high polyreactivity

###

Assay: yeast display, Sf9 membrane polyspecificity reagent, FACS + sequencing; frameworks hold sequencing errors
metric.name: polyreactivity (PSR sort gate)

Worked examples follow.
monomer.sequence | polyreactivity (PSR sort gate)
QVQLVESGGGLVQAGGSLRLSCAASGRTSYTNAMGWYRQAPGKERELVAAINYSGGSTYYADSVKGRFTISRDNAKNTVYLQMNSLKPEDTAVSYCAAERYYWYTEMGYWGQGTQVTVSS | high polyreactivity
QVQLVESGGGLVQAGGSLRLSCAASGRILRSYAMGWYRPAPGKERELVAAIRWRGGSTYYADSVKGRFTISRDNAKNTVYLQMNSLKPEDTAVYYCAARSYYRQSAGDYWGQGTQVTVSS | high polyreactivity
QVQLVESGGGLVQAGGSLRLSCAASGSISTPYTMGWYRQAPGKERELVADISWIGDTTSYADSVKGRFTISRDNAKNTVYLLMNSLKPEDTAVYYCNAEHRGYEYWGQGTQVTVSS | low polyreactivity
QVQLVESGGGLVQAGGSLRLSCAASGRTFIFYAMGWYRQAPGNERELVAAITLRGGGTDYADSVKGRFTISRDNAKYNVYLQMNSQKPEETAVYYCNADGYAVPRWFDPYSYLSDYWGQGTQVTVSS | low polyreactivity
QVQLVESGGGLVQAGGSLRLSCAASGSTFGYNAMGWYRQAPGKERELVASITWSSGSTYYADSVKGRFTISRDNAKNTVYLQMNSLKPEDTAVYYCAADVEYWSYEFNYWGQGTQVTVSS | low polyreactivity

Q. Given the entry QVQLVESGGGLVQAGGSLRLSCAASGITFDEYAMGWYIQAPGKERELVASISAGSTYYADSVKGRFTISRDNAKNTVYLQMNSLKPEDTAVYYCAVVVDYDAYRYWGYDYWGQGTQVTVSS , report its measured polyreactivity (PSR sort gate).
A. high polyreactivity

Q. Please answer likewise for QVQLVESGGGLVQAGDSLRLSCAASGRIFKRNTMGWYRQAPGKERELVAAITRSGGSTYYADSVKGRFTISRDNAMNNVYLQMNSLKPEDTAVYYCNAPQYIGSVPIGDYWGLGTQVTVSS
A. high polyreactivity

Q. And then QVQLVESGGGLVQAGGILRLSCAASGLSFSWYDMGWYRQAPGKERELVAAITTDGDDTYYADSVKGRFTISRDNAKNTVYLQMNSLKPEDTAVYYCAADSELAIRYPDRDYDSWGQGTQVTVSS , what is it?
A. low polyreactivity

Q. And then QVQLVESGGGLVQAGGSLRLSCAASGSILRRYAMGWYRQAPWKERELVAAITSSGGGTYYADSVKGRFTISRDNAKNTVYLQMKSLKPEVTAVYYCAAEYGWLYEYDYWGQGTQVTVSS , what is it?
A. high polyreactivity

Q. Try this sequence next: QVQLVESGGGLVQAGGSLRLRCAASGRILWWYAMGWYRQAPGKERELVATITYSGGSTYADSVKGRFTISRDNAKNTVYLQMNSLKPEDTAVYYCAARLPLYYGKSDYWGQGTQVTVSS
A. high polyreactivity

Q. Item: QVQLVESGGGLVQAGGSLRLSCAASGFTFSVYVMGWYRQAPGKERELVAAISSGGDTTYADSVKGRFTISRDNAKNTVYLQMNSLKPEDTAVYYCAAYRVILYYLYDYWGQGTQVTVSS
A. low polyreactivity

###

Experiment: yeast display, Sf9 membrane polyspecificity reagent, FACS + sequencing; frameworks hold sequencing errors
metric.name: polyreactivity (PSR sort gate)

monomer.sequence | result
QVQLVESGGGLVQAGGSLRLSCAASGITFWYYAMGWYRQAPGKERELVAVISRGGSTYYADSVKGRFTISRDNAKNTVYLQMNSLKPEDTAVYYCAARPRWYTYTRQEYDYWGQGTQVTVSS | high polyreactivity
QVQLVESGGGLVQAGGSLRLSCSASGRTFSRYAMGWYSQAPGTERELVATISRRGGSTYYADSVKGRFTISRDNAKNTVYLQMNSLKPEDTAVYYCAARLYTQYYYWGQGTQVTVSS | high polyreactivity
QVQLVESGGGLVQAGGSLRLSCAASGSTFDVYAMGWYRQAPGKERELVAAISRSGGSTYYADSVKGRFTISRDNAKNTVYLQMNSLKPEDTAVSYCNARLARWGSDEYNYWGQGTQVTVSS | low polyreactivity
QVQLVESGGGLVQAGGSLRLSCAASGSIFRPNTMGWYRQAPGKERELVAAIRYRGGGTYYADSVKGRFTISRDNAKNTVYLQMNSLKPEDTAVYFCNAPRRNWSYDYWGQGTQVTVSS | high polyreactivity
QVQLVESRGGLVQAGGSLRLSSASSGSIFDIYEMGRYRQAPGKERELLASITWSRGSTYYADSVKGRFTISRDNAKNSVYLQINCLKPEDTAVYYCGTDKLFGRTVRMDYWGQGTQVTVSS | low polyreactivity

Now look at this entry.
Q. What does the record list as polyreactivity (PSR sort gate) for QVQLVESGGGLVQAGGSLRLSCAASGSTFVRYAMGWYRQAPGKDRELVARISSAGSTNYADSVKGRFTISRDNAKNTVYLQMNSLKPEDTAVYYCAATTKAGVSSGQGDSWGQGTQVTVSS ?
A. low polyreactivity

###

Assay: yeast display, Sf9 membrane polyspecificity reagent, FACS + sequencing; frameworks hold sequencing errors
metric.name: polyreactivity (PSR sort gate)

These recorded examples may help you get a feel for the data.
monomer.sequence | result
QVQLVESGGGLVQAGGSLRLSCAASGSTFPGNAMGWYRQAPGNERELVAAIRWSGGRTYYADSVKGRFTISRDNAKNTVYLQMNSLKPEDTAVYYCAARLRKHGYGYWGQGTQVTVSS | low polyreactivity
QVQLVESGGGLVQAGGSLRLSCAASGRTFSLYAMGWSRPAPGKERELVAAITRRGGSTYYADSVKGRFTMSRDNAKNTVYLQMNSLKPEDTAVYYCAADSGYPWELDYWGQGTEVTVSS | low polyreactivity
QVQLVESGGGLVQAGGSLRLSCAASGSTINIYAMGWYRQAPGKERELVAAISGRGGSTYYADSVKGRFTISRDNAKNTVYLQMNSLKPEDTAVYYSAASGYKVGSYRARMYYWGQGTQVTVSS | high polyreactivity
QVQLVESGGGLVQAGGSLRLSCAASGYIFGHYTMGWYRPAPRKERELVAGITSGTRTYYADSVKGRFTISRDNAKNTVYLQMNSRKPDDTAVYYCAKRGPVRTQYTYYYWGQGTQVTVSS | high polyreactivity
QVQLLDSGGGLVQAGGSLRLSCAASGRTIYYYAMGWYRQAPGKEREFVAAIYWHGGSTYYAESVKGRFTISRDNAKNTVYFQMNSLKPEDTAVYYCAAERYDRVGFDYWGQGTQVTVSS | low polyreactivity
QVQLVESGGGLVQSGGSLRLSCAASGIKFYYNARGWYRPAPGKERELVARITWRAGSTYYADSVKGRFTISRDNAKNTVYLQMNSLKPEDTAVYYCNADHDGLGYYFWGQGTQVTVSS | high polyreactivity
QVQLVESGGGLVQAGGSLRLSCAASGSIFRRYAMGWYGQAPGKERELVAAISWSGGSTYYADSVKGRFTISRDNAKNTVYLQMNSLKPEDTAVYYCAARHRQQKLDYWGQGTQVTVSS | high polyreactivity
QVQLVESGGGLVQAGGSLRLSCAASGIIFGWYAMGWYRQAPGKERELVADISSDDSTYYADSVKGRFTISRDNAKNTVYLQMNSLKPEDTAVYYCAADTSYGSYWSLYYYNYYWGQGTQVTVSS | high polyreactivity

Q. Give its polyreactivity (PSR sort gate) value. Item: QVHLVESGGGLVQAGGSLRLSFAAYGIIFKYYAMVWYRQAPGKERELVASITDRGGSTYYSDSLKGRFTISRDNAKNTFYLQMNSLKPEDTAVYYCAAVPSTGKSGIRGGYWGQCTQVTVSS
A. high polyreactivity

Q. Then this sequence: QYQLVESGGGLVQAGGSLRLICAASGRIINKKAMGRYRHAPGKERELVAAITSSGGSTYYADSVKGRFTISRDNAKNTVYLQMNSLKPEDTAVYYCAAYAYGRFGKLNYWGQGTQVTVSS
A. low polyreactivity

Q. How about this sequence: QVQLVESGGGLVQAGGSLRLSCAASGITFYRYAMGWYRQAPGKERELVAAITGSGDSTYYADSVKGRFTISRDNAKNTVYLQMNSLKPEDTAVYYCNTDYGRRYDYWGQGTQVTVSS
A. high polyreactivity

Q. Entry QVQLVESCGGLVQAGGSLRLSCAASGFNIYRNAMGWYRKAPGKERELVAAISTSVGSTHYADSVKGRFTISRDNAMNTVYLQMYSLKPEDTAVYYCAKRRSIRDEFGYWGQGTQVTVSS please
A. high polyreactivity

Q. Okay, and QVQLVESGGCLVQAGGSLRLSCAASGITFRRYTMGWYRQAPGKERELVATISLSDGNTYYADSVKGRFTISRDNAKNSVYLQMNSLKPEDTAVYYCNADSTTQVYDYWGQGTQVTVSS ?
A. low polyreactivity

Q. Consider next the sequence QVQLVESGGGLVQAGGSLRLSCAASGIIFRGYVMGWYRQAPGKERELVADISRGGSTYYADSVKGRFTISRDNAKNTVYLQMNSQKPEDTAVYYCAKDYYACYWEMDYWGQGTQVTVSS in the same way.
A. low polyreactivity
